Measured MIC-fold improvement vs. vancomycin accompanies every entry in the list below.
test system: S. aureus VRSA; experiment: MIC, broth microdilution, vancomycin-resistant S. aureus (VRSA); format: cell-based, Staphylococcus aureus; conditions: VRSA; ratio of MIC of vancomycin and MIC of analogue
Lab note: jot down the number only; don't add units.

Compound	Reported property	Test value
CN(C)c1cc(NC(=O)CNC(C)(C)C)c(O)c2c1C[C@H]1C[C@H]3[C@H](N(C)C)C(O)=C(C(N)=O)C(=O)[C@@]3(O)C(O)=C1C2=O [Tigecycline, reference compound]	MIC-fold improvement vs. vancomycin	32
CN[C@H](CC(C)C)C(=O)N[C@H]1C(=O)N[C@@H](CC(N)=O)C(=O)N[C@H]2C(=O)N[C@H]3C(=O)N[C@H](C(=O)N[C@H](C(=O)NCC(=O)Nc4ccc(C)cc4C)c4cc(O)cc(O)c4-c4cc3ccc4O)[C@H](O)c3ccc(c(Cl)c3)Oc3cc2cc(c3O[C@@H]2O[C@H](CO)[C@@H](O)[C@H](O)[C@H]2O[C@H]2C[C@](C)(N)[C@H](O)[C@H](C)O2)Oc2ccc(cc2Cl)[C@H]1O	MIC-fold improvement vs. vancomycin	8
CN[C@H](CC(C)C)C(=O)N[C@H]1C(=O)N[C@@H](CC(N)=O)C(=O)N[C@H]2C(=O)N[C@H]3C(=O)N[C@H](C(=O)N[C@H](C(=O)NCCNC(=O)/C=C/c4ccc(F)cc4)c4cc(O)cc(O)c4-c4cc3ccc4O)[C@H](O)c3ccc(c(Cl)c3)Oc3cc2cc(c3O[C@@H]2O[C@H](CO)[C@@H](O)[C@H](O)[C@H]2O[C@H]2C[C@](C)(N)[C@H](O)[C@H](C)O2)Oc2ccc(cc2Cl)[C@H]1O	MIC-fold improvement vs. vancomycin	32
CNC(CC(C)C)C(=O)NC1C(=O)NC(CC(N)=O)C(=O)NC2C(=O)NC3C(=O)NC(C(=O)NC(C(=O)NCC(=O)Nc4ccc(-c5ccc(OC)cc5)cc4)c4cc(O)cc(O)c4-c4cc3ccc4O)C(O)c3ccc(c(Cl)c3)Oc3cc2cc(c3OC2OC(CO)C(O)C(O)C2OC2CC(C)(N)C(O)C(C)O2)Oc2ccc(cc2Cl)C1O (stereo not drawn)	MIC-fold improvement vs. vancomycin	64
CN[C@H](CC(C)C)C(=O)N[C@H]1C(=O)N[C@@H](CC(N)=O)C(=O)N[C@H]2C(=O)N[C@H]3C(=O)N[C@H](C(=O)N[C@H](C(=O)NCC(=O)Nc4ccc([N+](=O)[O-])cc4)c4cc(O)cc(O)c4-c4cc3ccc4O)[C@H](O)c3ccc(c(Cl)c3)Oc3cc2cc(c3O[C@@H]2O[C@H](CO)[C@@H](O)[C@H](O)[C@H]2O[C@H]2C[C@](C)(N)[C@H](O)[C@H](C)O2)Oc2ccc(cc2Cl)[C@H]1O	MIC-fold improvement vs. vancomycin	16

Let us examine a further case.
Q. Look at this compound and give its reported MIC-fold improvement vs. vancomycin. CNC(CC(C)C)C(=O)NC1C(=O)NC(CC(N)=O)C(=O)NC2C(=O)NC3C(=O)NC(C(=O)NC(C(=O)NCCNC(=O)C=Cc4ccccc4)c4cc(O)cc(O)c4-c4cc3ccc4O)C(O)c3ccc(c(Cl)c3)Oc3cc2cc(c3OC2OC(CO)C(O)C(O)C2OC2CC(C)(N)C(O)C(C)O2)Oc2ccc(cc2Cl)C1O (stereo not drawn)
A. 64

---

tested on: E. faecalis VRE 53; assay: MIC, broth microdilution, vancomycin-resistant E. faecalis VRE 53 (VanA); assay type: cell-based, Enterococcus faecalis; conditions: Enterococcus faecalis VRE 53 (vancomycin-resistant); read-out: MIC
Measured MIC accompanies every entry in the list below.
Kindly answer with a numeric value in µM, unit omitted.

Entry smiles	MIC [µM]
CN[C@H](CC(C)C)C(=O)N[C@H]1C(=O)N[C@@H](CC(N)=O)C(=O)N[C@H]2C(=O)N[C@H]3C(=O)N[C@H](C(=O)N[C@H](C(=O)NCCCNC(=O)c4ccc5ccccc5c4)c4cc(O)cc(O)c4-c4cc3ccc4O)[C@H](O)c3ccc(c(Cl)c3)Oc3cc2cc(c3O[C@@H]2O[C@H](CO)[C@@H](O)[C@H](O)[C@H]2O[C@H]2C[C@](C)(N)[C@H](O)[C@H](C)O2)Oc2ccc(cc2Cl)[C@H]1O	25

Q. // fetch E. faecalis VRE 53 MIC for C#Cc1ccc(/C=C/C(=O)NCCNC(=O)[C@H]2NC(=O)[C@H]3NC(=O)[C@H](NC(=O)[C@@H]4NC(=O)[C@H](CC(N)=O)NC(=O)[C@H](NC(=O)[C@@H](CC(C)C)NC)[C@H](O)c5ccc(c(Cl)c5)Oc5cc4cc(c5O[C@@H]4O[C@H](CO)[C@@H](O)[C@H](O)[C@H]4O[C@H]4C[C@](C)(N)[C@H](O)[C@H](C)O4)Oc4ccc(cc4Cl)[C@H]3O)c3ccc(O)c(c3)-c3c(O)cc(O)cc32)cc1
A. 6.25

---

tested on: E. faecalis VSE 1; assay: MIC, broth microdilution, vancomycin-sensitive E. faecalis (VSE 1); assay type: cell-based, Enterococcus faecalis; details: E. faecalis VSE 1; ratio of MIC of vancomycin and MIC of analogue
Measured MICvanc/MICi accompanies every entry in the list below.
Lab note: jot down the number only; don't add units.

Worked set:
Compound	Experimental target	MICvanc/MICi
C#Cc1ccc(/C=C/C(=O)NCCNC(=O)[C@H]2NC(=O)[C@H]3NC(=O)[C@H](NC(=O)[C@@H]4NC(=O)[C@H](CC(N)=O)NC(=O)[C@H](NC(=O)[C@@H](CC(C)C)NC)[C@H](O)c5ccc(c(Cl)c5)Oc5cc4cc(c5O[C@@H]4O[C@H](CO)[C@@H](O)[C@H](O)[C@H]4O[C@H]4C[C@](C)(N)[C@H](O)[C@H](C)O4)Oc4ccc(cc4Cl)[C@H]3O)c3ccc(O)c(c3)-c3c(O)cc(O)cc32)cc1	E. faecalis VSE 1	16
C#Cc1ccc(NC(=O)CNC(=O)C2NC(=O)C3NC(=O)C(NC(=O)C4NC(=O)C(CC(N)=O)NC(=O)C(NC(=O)C(CC(C)C)NC)C(O)c5ccc(c(Cl)c5)Oc5cc4cc(c5OC4OC(CO)C(O)C(O)C4OC4CC(C)(N)C(O)C(C)O4)Oc4ccc(cc4Cl)C3O)c3ccc(O)c(c3)-c3c(O)cc(O)cc32)cc1 (stereo not shown)	E. faecalis VSE 1	16
C#CCNC(=O)[C@H]1NC(=O)[C@H]2NC(=O)[C@H](NC(=O)[C@@H]3NC(=O)[C@H](CC(N)=O)NC(=O)[C@H](NC(=O)[C@@H](CC(C)C)NC)[C@H](O)c4ccc(c(Cl)c4)Oc4cc3cc(c4O[C@@H]3O[C@H](CO)[C@@H](O)[C@H](O)[C@H]3O[C@H]3C[C@](C)(N)[C@H](O)[C@H](C)O3)Oc3ccc(cc3Cl)[C@H]2O)c2ccc(O)c(c2)-c2c(O)cc(O)cc21	E. faecalis VSE 1	4

Q. Look at this compound and give its reported MICvanc/MICi. C#Cc1ccc(C=Cc2ccc(NC(=O)CNC(=O)C3NC(=O)C4NC(=O)C(NC(=O)C5NC(=O)C(CC(N)=O)NC(=O)C(NC(=O)C(CC(C)C)NC)C(O)c6ccc(c(Cl)c6)Oc6cc5cc(c6OC5OC(CO)C(O)C(O)C5OC5CC(C)(N)C(O)C(C)O5)Oc5ccc(cc5Cl)C4O)c4ccc(O)c(c4)-c4c(O)cc(O)cc43)cc2)cc1 (stereo not shown)
A. 8

Q. Look at this compound and give its reported MICvanc/MICi. CN[C@H](CC(C)C)C(=O)N[C@H]1C(=O)N[C@@H](CC(N)=O)C(=O)N[C@H]2C(=O)N[C@H]3C(=O)N[C@H](C(=O)N[C@H](C(=O)O)c4cc(O)cc(O)c4-c4cc3ccc4O)[C@H](O)c3ccc(c(Cl)c3)Oc3cc2cc(c3O[C@@H]2O[C@H](CO)[C@@H](O)[C@H](O)[C@H]2O[C@H]2C[C@](C)(N)[C@H](O)[C@H](C)O2)Oc2ccc(cc2Cl)[C@H]1O
A. 1

Q. Look at this compound and give its reported MICvanc/MICi. C#CCCC(=O)NCCCNC(=O)C1NC(=O)C2NC(=O)C(NC(=O)C3NC(=O)C(CC(N)=O)NC(=O)C(NC(=O)C(CC(C)C)NC)C(O)c4ccc(c(Cl)c4)Oc4cc3cc(c4OC3OC(CO)C(O)C(O)C3OC3CC(C)(N)C(O)C(C)O3)Oc3ccc(cc3Cl)C2O)c2ccc(O)c(c2)-c2c(O)cc(O)cc21 (stereo not shown)
A. 2

Q. Look at this compound and give its reported MICvanc/MICi. C#Cc1ccc2cc(C(=O)NCCCNC(=O)[C@H]3NC(=O)[C@H]4NC(=O)[C@H](NC(=O)[C@@H]5NC(=O)[C@H](CC(N)=O)NC(=O)[C@H](NC(=O)[C@@H](CC(C)C)NC)[C@H](O)c6ccc(c(Cl)c6)Oc6cc5cc(c6O[C@@H]5O[C@H](CO)[C@@H](O)[C@H](O)[C@H]5O[C@H]5C[C@](C)(N)[C@H](O)[C@H](C)O5)Oc5ccc(cc5Cl)[C@H]4O)c4ccc(O)c(c4)-c4c(O)cc(O)cc43)ccc2c1
A. 32

src = paper PMC6001238
